Tested on: PPARg DBDmut:RXRa IVT, anti-PPARg (DBD mutation: PPARg1 K132A/R137A, NR concentration 270 nM, RXRa partner concentration 90 nM)
Assay: PBM binding z-score (relative to random genomic background probes); higher = stronger binding; sequences stand for … in GC…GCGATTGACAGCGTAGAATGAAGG
Record form. Attribute: PBM binding z-score. Fill in for each entry.

INPUT: Specify measured PBM binding z-score for `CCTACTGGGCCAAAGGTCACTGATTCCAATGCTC` .
OUTPUT: 0.0303

INPUT: Specify measured PBM binding z-score for `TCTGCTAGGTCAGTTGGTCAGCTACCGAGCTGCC` .
OUTPUT: 0.596

INPUT: Specify measured PBM binding z-score for `CATCCAAGGTCAGCAGGTCAGTGAAAGCGACGTG` .
OUTPUT: 0.104

INPUT: Specify measured PBM binding z-score for `TCGAGTAGGTTTCCAATGGGGCATTCAGCTTTCT` .
OUTPUT: -1.11

INPUT: Specify measured PBM binding z-score for `CATACAGGGTCAGCGAGGCCAGAGTAGGGACGGC` .
OUTPUT: 0.657

INPUT: Specify measured PBM binding z-score for `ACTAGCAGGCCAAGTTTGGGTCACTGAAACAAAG` .
OUTPUT: -0.659

INPUT: Specify measured PBM binding z-score for `GCATACAGGTGAAACGCAGGTAACTCAGGGTGGC` .
OUTPUT: -0.446

INPUT: Specify measured PBM binding z-score for `AATACAGGGTCATCGTAGGCCAGAGTCCGCACAG` .
OUTPUT: 0.922

INPUT: Specify measured PBM binding z-score for `TCGAGTAGGTTACCAGTGGGGCATTCAGCTTTCT` .
OUTPUT: -0.827

INPUT: Specify measured PBM binding z-score for `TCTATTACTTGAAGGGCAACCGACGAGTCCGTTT` .
OUTPUT: 1.07

INPUT: Specify measured PBM binding z-score for `CCTGCTAGGTCATGGTCAGCTACTCTACAGTATG` .
OUTPUT: 0.29

INPUT: Specify measured PBM binding z-score for `GCTTACGCGTCAAAGGTTATAGCATGAATAGAAT` .
OUTPUT: -0.0262

INPUT: Specify measured PBM binding z-score for `CCTTACGGGTCACTGACAGGCTATAGCATTTGGA` .
OUTPUT: 0.647

INPUT: Specify measured PBM binding z-score for `CGAACGGGGGCATGAGTTGATAGCAAATGCCGAT` .
OUTPUT: 8.66

INPUT: Specify measured PBM binding z-score for `CCTAGCAGGCCAATCTGGGTCACTCTAGGCTTGA` .
OUTPUT: -0.959

INPUT: Specify measured PBM binding z-score for `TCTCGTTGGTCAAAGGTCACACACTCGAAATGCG` .
OUTPUT: 0.705

INPUT: Specify measured PBM binding z-score for `TCTTGTAGCTCAAGCAGGTTAAGAAAGCCTGAGT` .
OUTPUT: -0.768

INPUT: Specify measured PBM binding z-score for `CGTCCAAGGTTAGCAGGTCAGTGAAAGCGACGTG` .
OUTPUT: -0.8

INPUT: Specify measured PBM binding z-score for `TCTATAAGTTGAAGGGCAACCGACGAGTCCGTTT` .
OUTPUT: 0.713
